# System: DU-145
# run.description: NCI tumour cell line growth inhibition, 48 h
The source made the active and inactive calls. Rule as the data show it: active = GI50 up to about 1.1 µM and inactive = higher.
reported.endpoint: GI50

compound=O=c1c2ccccc2nnn1-c1n[nH]c2ccccc12 target_or_test_system=DU-145 result="> 100 µM (inactive)"
compound=COc1ccc2c(c1)CCc1c-2n(CCN(C)C)c2ccc(OC)cc12 target_or_test_system=DU-145 result="33.9 µM (inactive)"
compound=Nc1ccc(-c2nc3ccccc3s2)cc1C(F)(F)F target_or_test_system=DU-145 result="15.8 µM (inactive)"
compound=COC(=O)Nc1nc2ccc(S(=O)(=O)SC)cc2[nH]1 target_or_test_system=DU-145 result="6.05 µM (inactive)"
compound=C1COC(NC(C2CC2)C2CC2)=N1 target_or_test_system=DU-145 result="> 100 µM (inactive)"
compound=CC(=O)On1c(-c2ccccc2-c2nc3ccccc3n2OC(C)=O)nc2ccccc21 target_or_test_system=DU-145 result="49.7 µM (inactive)"
compound=Cc1ccc2[nH]c3c(C)c4cc[n+](C)cc4c(C)c3c2c1 target_or_test_system=DU-145 result="0.628 µM (active)"
compound="CC(=O)OC12c3ccccc3-c3ccccc3C1C1C(=O)OC(=O)C12 (configuration not stated)" target_or_test_system=DU-145 result="> 10 µM (inactive)"
compound="CC1CCCN1CCCOC(=O)c1ccc(OC2C=CCCC2)cc1 (configuration not stated)" target_or_test_system=DU-145 result="> 100 µM (inactive)"
compound="COc1cc(C)c2c(c1C=O)Oc1c(c(C)c(O)c3c1C(O)OC3=O)OC2=O (configuration not stated)" target_or_test_system=DU-145 result="87.5 µM (inactive)"
compound=Brc1ccc(C2(N3CCCCC3)CCCCC2)s1 target_or_test_system=DU-145 result="56.6 µM (inactive)"
compound=CC(C)(/C=N\O)NO target_or_test_system=DU-145 result="> 10 µM (inactive)"
compound="CCCC[S+]([O-])CCC(N)C(=O)O (configuration not stated)" target_or_test_system=DU-145 result="> 100 µM (inactive)"
compound="C[C@]12CC[C@H]3[C@@H](CCC4=C[C@@H](OC5OCC(OC6OC(CO)C(O)C(O)C6O)C(O)C5O)CC[C@@]43C=O)[C@@]1(O)CCC2C1=CC(=O)OC1 (some centres not stated)" target_or_test_system=DU-145 result="0.435 µM (active)"
compound="O=C(CN1CCCC1)Nc1ccc2c(c1)C1Oc3ccccc3CC1CO2 (configuration not stated)" target_or_test_system=DU-145 result="> 100 µM (inactive)"
compound=CCCc1cc(-c2ccc(-c3cc(CCC)c(C=O)[nH]3)s2)[nH]c1C=O target_or_test_system=DU-145 result="> 100 µM (inactive)"
compound=O=c1c2cc(I)ccc2nc(-c2cccs2)n1/N=C/c1ccccc1 target_or_test_system=DU-145 result="> 100 µM (inactive)"

# credit: ChEMBL document CHEMBL1201862
